- Test system: acute HIV infection of T-lymphoid cells
- testDescription: Assay for inhibition of HIV replication (spread assay)
- Type: cell-based, HIV-1
- recordedConditions: Human immunodeficiency virus 1, T-lymphoid; read-out: Spread - IC95
Give IC95 for every item shown.
Answers are plain numbers, in nM.

Each compound below has a recorded value; state its IC95.
1. COC(=O)N[C@H](C(=O)N[C@H](CCC[C@@H](CO)N(C)S(=O)(=O)c1ccc(N)cc1)C1CC1)C(c1ccccc1)c1ccccc1
2. CCN([C@H](CO)CCC[C@H](C)NC(=O)[C@H](Cc1ccccc1Cl)NC(=O)OC)S(=O)(=O)c1ccc(CO)cc1
3. CC[C@@H](CCC[C@@H](CO)N(C(C)C)S(=O)(=O)c1ccc(CO)cc1)NC(=O)[C@@H](NC(=O)OC)C(c1ccccc1)c1ccccc1
4. CCN([C@H](CO)CCC[C@H](C)NC(=O)[C@@H](NC(=O)OC)C(c1ccccc1)c1ccccc1)S(=O)(=O)c1ccc(N)cc1

RESULT:
1. 323
2. 102
3. 43
4. 64

Count: 2. Required value per item: IC95.
1. COC(=O)N[C@H](C(=O)NC(C)(C)CCC[C@@H](CO)N(C(C)C)S(=O)(=O)c1ccc(N)cc1)C(c1ccccc1)c1ccccc1
2. COC(=O)N[C@H](C(=O)N[C@H](CCC[C@@H](CO)N(CC(C)C)S(=O)(=O)c1ccc(N)cc1)C(C)C)C(c1ccccc1)c1ccccc1

RESULT:
264
95

Every entry's value here was drawn from patent US20100093811A1.
